# TARGET OR SYSTEM: gal9N (N-terminal of gal9)
pIC50: −log10 of the molar value.

>  <COMPOUND>
OC[C@H]1O[C@@H](O[C@H]2[C@H](O)[C@@H](O)C(O)O[C@@H]2CO)[C@H](O)[C@@H](O)[C@H]1O (stereo partly shown) [Lactose]

>  <pIC50>
4.00

$$$$

###

For reference, Kd measured on gal3 (Homo sapiens, UniProt P17931):

>  <COMPOUND>
CC(=O)NC1C(O)OC(CO)C(O)C1OC1OC(CO)C(O)C(O)C1O (centres unmarked)

>  <Kd, µM>
636

$$$$
>  <COMPOUND>
CC(=O)N[C@H]1C(O)O[C@H](CO)[C@@H](O[C@@H]2O[C@H](CO)[C@H](O)[C@H](O)[C@H]2O)[C@@H]1O (some centres unmarked)

>  <Kd, µM>
25

$$$$

###

# TARGET OR SYSTEM: gal4 (Homo sapiens)
# Sequence (P56470 whole entry, species assumed, the tested form may be a part): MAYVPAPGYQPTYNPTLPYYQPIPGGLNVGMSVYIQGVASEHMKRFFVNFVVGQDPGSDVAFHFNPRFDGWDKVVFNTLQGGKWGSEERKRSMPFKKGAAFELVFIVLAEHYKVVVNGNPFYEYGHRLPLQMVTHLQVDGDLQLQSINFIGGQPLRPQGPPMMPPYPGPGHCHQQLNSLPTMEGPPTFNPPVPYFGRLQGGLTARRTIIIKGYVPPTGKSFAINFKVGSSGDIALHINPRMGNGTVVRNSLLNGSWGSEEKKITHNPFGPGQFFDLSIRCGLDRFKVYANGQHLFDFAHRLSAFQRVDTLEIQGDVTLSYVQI

>  <MOLECULE>
OC[C@H]1O[C@@H](O[C@H]2[C@H](O)[C@@H](O)C(O)O[C@@H]2CO)[C@H](O)[C@@H](O)[C@H]1O (stereo partly shown) [Lactose]

>  <SCALE UNIT>
mM

>  <IC50>
10

$$$$
